Please respond with reported growth for every item in the list.
- System: MDA-MB-435 melanoma
- test.protocol: NCI-60 one-dose screen, 48 h (100 = growth as untreated, 0 = no growth, -100 = all killed)
- test.settings: 10 µM unless noted
Compounds without any hit were thinned out: in the full panel of roughly 83,000, 20% have a hit.
Give bare numbers, in %.

// solved cases for growth follow
>  <molecule>
CC(C)OC(=O)c1ccc([N+](=O)[O-])cc1

>  <growth, %>
125

$$$$
>  <molecule>
COc1ccc(Sc2[nH]c(C=O)c3ccccc23)cc1

>  <growth, %>
-0.922

$$$$
>  <molecule>
N[C@@H](CO)C(=O)O

>  <growth, %>
97.4

$$$$
>  <molecule>
COc1ccc(C2CC(c3cccc(Nc4ccnc5cc(Cl)ccc45)c3)=NN2c2ccc(Cl)cc2)cc1 (stereo unspecified)

>  <growth, %>
30.6

$$$$
>  <molecule>
Cc1ccc(-c2cnc3sc4ccc(Cl)cc4n23)cc1

>  <growth, %>
105

$$$$

Value sought for every listed molecule: growth.
1. O=C1/C(=C\c2cccn2Cc2ccc(Cl)cc2)c2ccccc2N1c1c(Cl)cccc1Cl
2. COc1ccc(Nc2ncccc2C(=O)NCc2cn(Cc3cc(OC)cc(OC)c3)nn2)cc1
3. COc1cccc(NC(=O)c2c(-c3ccccc3)c(-c3ccccc3)n[nH]c2=O)c1
4. C/C=C(\C)C(C(=O)NC1CCCCC1)N(C(=O)C1CCc2cc(F)ccc2O1)c1ccc([N+](=O)[O-])cc1 (stereo unspecified)
5. CCOc1ccc([C@@H]2[C@@H](Oc3ccccc3)C(=O)N2c2cc(OC)c(OC)c(OC)c2)cc1
6. C=C(C)C1CCC2(C(=O)O)CCC3(C)C(CCC4C5(C)CCC(O)C(C)(C)C5CCC43C)C12 (stereo unspecified)

OUT:
[106, 106, 98, 87.7, -25, 48.6]

Value sought for every listed molecule: growth.
1. Cc1ccc2cc3c(NC(=O)c4cccnc4)nn(C)c3nc2c1
2. O=[N+]([O-])c1cccc([I+]c2ccccc2)c1
3. Nc1nc2c(c3ncccc13)C(c1ccccc1)Cc1ncccc1-2 (stereo unspecified)
4. O=C(O)C1[S][Sb]([CH](C(=O)O)[CH](C(=O)O)[Sb]2[S]C(C(=O)O)C(C(=O)O)[S]2)[S]C1C(=O)O (stereo unspecified)
5. CCN(C)CCCOc1ccc(/C(=C(\C)Cc2cccc(OC)c2)c2ccc(OC(C)=O)cc2)cc1
6. COc1cccc(Cn2c(-c3nonc3NC(C)=O)nc3ccccc32)c1
7. Clc1ccc(-c2nc(Br)cn3ccnc23)cc1
8. COc1ccc2c(c1)N(CCO)C1=C(C(=O)OC1)C2c1cccc(Br)c1 (stereo unspecified)

OUT:
1: 95.5; 2: 72.7; 3: -0.757; 4: 116; 5: 97.1; 6: -35; 7: 111; 8: -51

Value sought for every listed molecule: growth.
1. COc1ccc(C2C=C(c3ccc(Cl)cc3)N=C3SC=CN32)cc1 (stereo unspecified)
2. CCCCc1n(Cc2ccc3ccccc3n2)cc[n+]1Cc1ccc2ccccc2n1

OUT:
1. 107
2. 7.37

* * *

- Tested on: SN12C renal
- test.protocol: NCI-60 one-dose screen, 48 h (100 = growth as untreated, 0 = no growth, -100 = all killed)
- test.settings: 10 µM unless noted
The panel holds about 83,000 compounds, 20% with a hit somewhere; the sample as a whole holds those more often.
measurement.kind: growth (%)
Numbers only, in %.

// solved cases for growth follow
>  <molecule>
[Ag].[Ag].[NH-]S(=O)(=O)c1ccc(N=Nc2cc(N=Nc3ccc(S([NH-])(=O)=O)cc3)c3c(NC(=O)C(Cl)Cl)cccc3c2OC(=O)C(Cl)Cl)cc1.[c-]1nccs1.[c-]1nccs1

>  <value.reported>
89.6

$$$$
>  <molecule>
N#CC1=C(N)Oc2nc[nH]c(=O)c2C1c1cccs1 (stereo not drawn)

>  <value.reported>
105

$$$$
>  <molecule>
C#CC[C@@H]1C[C@]2(C)[C@H]3CC=C4[C@H]5[C@@H](C)[C@H](C)CC[C@]5(C(=O)NCCCCN)CC[C@@]4(C)[C@]3(C)CC[C@H]2C(C)(C)[C@H]1OC(C)=O

>  <value.reported>
73.8

$$$$
>  <molecule>
Oc1c(-c2cc(C(F)(F)F)[nH]n2)cc(Cl)c(OCc2ccc(Cl)cc2)c1-c1ccc(Cl)c(C(F)(F)F)c1

>  <value.reported>
5.54

$$$$
>  <molecule>
CC[C@H](Nc1nc(N)nc(C2CC2)c1C#N)c1nc2cccc(NCc3ccc(C(=O)NO)cc3)c2c(=O)n1-c1ccccc1

>  <value.reported>
9.34

$$$$
>  <molecule>
COc1cccc2nc(Nc3cccc(NC(=O)c4cc(N5CCOCC5)cc(C(F)(F)F)c4)c3)ccc12

>  <value.reported>
57

$$$$
>  <molecule>
CCc1ccc(-c2ccc(NC3CCCCCC3)nn2)cc1S(N)(=O)=O

>  <value.reported>
101

$$$$

Now examine the next entry.
IN: Data request, read-out growth, for CCc1ccc2c(c1)N(CCO)C1=C(C(=O)OC1)C2c1cccc(Cl)c1 (stereo not drawn)
OUT: 38.7

* * *

- Tested on: K-562 leukemia
- test.protocol: NCI-60 one-dose screen, 48 h
- test.settings: 10 µM unless noted
The panel holds about 83,000 compounds, 20% with a hit somewhere; the sample as a whole holds those more often. Active and inactive are the calls of the source. Rule for the calls: active = growth percent below 10; inactive = the rest.
Could you please pick one outcome from this set? 1 for active, 0 for inactive

>  <molecule>
COc1cccc(/C=N/N=C(N)N)c1

>  <category.label>
0

$$$$
>  <molecule>
C#CC[C@@H]1C[C@]2(C)[C@H]3CC[C@@H]4[C@H]5C(C(=C)C)CC[C@]5(C(=O)NCCN(CCN)CCN)CC[C@@]4(C)[C@]3(C)CC[C@H]2C(C)(C)[C@H]1OC(C)=O (some centres undefined)

>  <category.label>
1

$$$$
>  <molecule>
CS(=O)(=O)Nc1cc(-c2cc3ncc(C#N)c(Nc4ccc(Oc5ccccc5)c(Cl)c4)c3s2)cnc1Cl

>  <category.label>
0

$$$$

IN: Which outcome was entered for the molecule O=C1Cc2c([nH]c3ccc([N+](=O)[O-])cc23)-c2ccccc2N1 in this test?
OUT: 1

* * *

Please respond with reported growth for every item in the list.
- Tested on: ACHN renal
- test.protocol: NCI-60 one-dose screen, 48 h (100 = growth as untreated, 0 = no growth, -100 = all killed)
- test.settings: 10 µM unless noted
- Method: Growth inhibition of the ACHN human tumor cell line is measured as a screen for anti-cancer activity. Cells are grown in 96 well plates and exposed to the test compound for 48 hours. Compounds are tested at a single concentration, which is 10^-5 M for most compounds. The reported endpoint is percent growth (GI% or GIPRCNT), where numbers from 0 - 100% represent growth inhibition, and numbers from -100% - 0 represent cell death. For example, a value of 40 represents 60% growth inhibition. […]
Compounds without any hit were thinned out: in the full panel of roughly 83,000, 20% have a hit. Calls of active or inactive are those of the source. How the source made its calls: active means growth percent below 10; inactive means the rest.

// solved cases for growth follow
>  <compound>
CC(=O)OC1Oc2ccccc2-c2oc3nc(=N)n(C)c-3cc21 (stereo unspecified)

>  <target.of.assay>
ACHN renal

>  <growth>
110% (inactive)

$$$$
>  <compound>
Clc1ccc(Nc2ncnc3c2sc2ncccc23)cc1

>  <target.of.assay>
ACHN renal

>  <growth>
14.7% (inactive)

$$$$

Value sought for every listed compound: growth.
1. N[C@@H](CO)C(=O)O
2. Nc1cccc(S(=O)(=O)c2cccc(N)c2)c1

OUT:
107% (inactive)
102% (inactive)

Value sought for every listed compound: growth.
1. COc1ccc(/C=C(/C(=O)N2CCN(c3ccccc3)CC2)c2cc(OC)c(OC)c(OC)c2)cc1O
2. C[C@@H](C[C@H](CC1CC1)c1ccccc1)c1ccc2ccccc2c1

OUT:
1: 33.1% (inactive); 2: 106% (inactive)

* * *

- Tested on: A498 renal
- test.protocol: NCI-60 one-dose screen, 48 h
- test.settings: 10 µM unless noted
Compounds without any hit were thinned out: in the full panel of roughly 83,000, 20% have a hit. The source made the active and inactive calls. How the source made its calls: active means growth percent below 10; inactive means the rest.
Could you please pick one outcome from this set? active, inactive

>  <molecule>
CNC(=O)c1ccccc1Sc1ccc2c(/C=C/c3ccccn3)n[nH]c2c1

>  <category.label>
active

$$$$
>  <molecule>
Cc1cc(-c2nnc(/C=C/c3ccc4c(c3)OCO4)o2)n[nH]1

>  <category.label>
inactive

$$$$

IN: Which outcome was entered for the molecule Cc1ccc(NC(=O)Cn2nncc2CN2C(=O)CSC2=O)cc1C in this test?
OUT: inactive

IN: Which outcome was entered for the molecule O=C(OCc1ccc2c(Cl)cc(Cl)c(O)c2n1)c1cc2ccccc2[nH]1 in this test?
OUT: active

IN: Which outcome was entered for the molecule CC1C2CCC(C2)C1COCCOCCO (stereo not given) in this test?
OUT: inactive

IN: Which outcome was entered for the molecule CN1CCN(Cc2ccc(NC(=O)c3cccc(C#Cc4cnc(N)c5ncccc45)c3F)cc2C(F)(F)F)CC1 in this test?
OUT: active

IN: Which outcome was entered for the molecule Cc1nc2ccc(Nc3nc(Cl)nc(N4CCOCC4)n3)cc2n1Cc1ccccc1 in this test?
OUT: inactive
